- Assay Summary: Cardiotoxicity in human iPSC derived cardiomyocytes assessed as reduction in beating rate at 1 nM
- Format: toxicity, cell-based, Cardiac muscle cell
Reported inhibition at 0.001 µM values for a set of compounds
# number only, unit % dropped from output

COc1cccc(OC[C@@H]2CCc3cc([C@H]4CC[C@](N)(COP(=O)(O)O)C4)ccc3C2)c1    13
COc1ccccc1OC[C@@H]1CCc2cc([C@H]3CC[C@](N)(COP(=O)(O)O)C3)ccc2C1    20
N[C@]1(COP(=O)(O)O)CC[C@H](c2ccc3c(c2)CC[C@@H](COCc2ccccc2)C3)C1    16
COc1cccc(SC[C@@H]2CCc3cc([C@H]4CC[C@](N)(COP(=O)(O)O)C4)ccc3C2)c1    30
CCCCCC[C@@H]1CCc2cc([C@H]3CC[C@](N)(COP(=O)(O)O)C3)ccc2C1    1
COc1ccccc1CC[C@@H]1CCc2cc([C@H]3CC[C@](N)(COP(=O)(O)O)C3)ccc2C1    11

Field: next compound
Value lookup for inhibition at 0.001 µM; key = COc1ccccc1SC[C@@H]1CCc2cc([C@H]3CC[C@](N)(COP(=O)(O)O)C3)ccc2C1
16

* * *

Reported inhibition at 0.01 µM values for a set of compounds
- Assay Summary: Cardiotoxicity in human iPSC derived cardiomyocytes assessed as reduction in beating rate at 10 nM
- Assay type: toxicity, cell-based, Cardiac muscle cell
# number only, unit % dropped from output

COc1ccccc1SC[C@@H]1CCc2cc([C@H]3CC[C@](N)(COP(=O)(O)O)C3)ccc2C1    26
COc1ccccc1CC[C@@H]1CCc2cc([C@H]3CC[C@](N)(COP(=O)(O)O)C3)ccc2C1    27
COc1cccc(OC[C@@H]2CCc3cc([C@H]4CC[C@](N)(COP(=O)(O)O)C4)ccc3C2)c1    30

Value lookup for inhibition at 0.01 µM; key = COc1ccccc1OC[C@@H]1CCc2cc([C@H]3CC[C@](N)(COP(=O)(O)O)C3)ccc2C1
43

* * *

- Assay Summary: Elimination half-life in Lewis rat at 0.3 mg/kg, po
- Format: ADME, organism-based
- Experimental Setup: in vivo, read-out: beta t1/2 (converted)
Measured Metric: half-life (h)
# number only, unit h dropped from output

N[C@]1(CO)CC[C@H](c2ccc3c(c2)CC[C@@H](COCc2ccccc2)C3)C1    11

Field: next compound
Value lookup for half-life; key = COc1cccc(OC[C@@H]2CCc3cc([C@H]4CC[C@](N)(CO)C4)ccc3C2)c1
24

* * *

- Assay Summary: Elimination half-life in po dose Lewis rat
- Type: ADME, organism-based
- Experimental Setup: in vivo, read-out: beta t1/2
Measured Metric: half-life

Value lookup for half-life; key = CCCCCC[C@@H]1CCc2cc([C@H]3CC[C@](N)(CO)C3)ccc2C1
> 100 h

The measurements presented in this section are drawn from ChEMBL document CHEMBL4622995.
